# System: Escherichia coli
# assay.method.text: Antimicrobial activity against tetracycline-resistant Escherichia coli AG100A after 18 hrs by rapid INT colorimetric assay in presence of efflux pump inhibitor phenylalanine arginine
# Assay type: functional
reported.metric: MIC (mg/L)
Output spec: scalar in mg/L, unitless text.

line.notation	experimental.system	unit.info	recorded.number
O=C(N[C@H](CO)[C@H](O)c1ccc([N+](=O)[O-])cc1)C(Cl)Cl	Escherichia coli	mg/L	2
CC1=C(c2c(C)cc(O)c3c2C(=O)C(c2c(O)c4c(C)cccc4oc2=O)=C(c2c(O)c4c(C)cccc4oc2=O)C3=O)C(=O)c2c(O)cccc2C1=O	Escherichia coli	mg/L	0.24
CCn1cc(C(=O)O)c(=O)c2cc(F)c(N3CCNCC3)cc21	Escherichia coli	mg/L	0.25

Entry under review: CC(C)=CCc1c(O)ccc(C(=O)/C=C/c2ccc(O)cc2)c1O . Reported MIC?
8

----------
# Tested on: Escherichia coli
# assay.method.text: Antimicrobial activity against Escherichia coli AG100 after 18 hrs by rapid INT colorimetric assay in presence of efflux pump inhibitor phenylalanine arginine
# Format: functional
# setup.conditions: AG100, 18 h
reported.metric: MIC (µg/mL)
Output spec: scalar in µg/mL, unitless text.

Examples with their reported MIC follow.
molecule	unit.info	MIC
CC1=C(c2c(C)cc(O)c3c2C(=O)C(c2c(O)c4c(C)cccc4oc2=O)=C(c2c(O)c4c(C)cccc4oc2=O)C3=O)C(=O)c2c(O)cccc2C1=O [DIOSPYRONE]	µg/mL	1
CC(C)=CCc1c(O)ccc(C(=O)/C=C/c2ccc(O)cc2)c1O [ISOBAVACHALCONE]	µg/mL	0.5
O=C(N[C@H](CO)[C@H](O)c1ccc([N+](=O)[O-])cc1)C(Cl)Cl [CHLORAMPHENICOL]	µg/mL	0.25

Next molecule, please.
Entry under review: CCn1cc(C(=O)O)c(=O)c2cc(F)c(N3CCNCC3)cc21 [NORFLOXACIN] . Reported MIC?
0.12

----------
MIC values for the compounds below.
# Test system: Klebsiella pneumoniae
# assay.method.text: Antimicrobial activity against Klebsiella pneumoniae KP55 after 18 hrs by rapid INT colorimetric assay
# Type: functional
# setup.conditions: KP55, 18 h
Output spec: scalar in µg/mL, unitless text.

compound	unit.info	recorded.number
CCn1cc(C(=O)O)c(=O)c2cc(F)c(N3CCNCC3)cc21 [NORFLOXACIN]	µg/mL	16
CC(C)=CCc1c(O)ccc(C(=O)/C=C/c2ccc(O)cc2)c1O [ISOBAVACHALCONE]	µg/mL	32
O=C(N[C@H](CO)[C@H](O)c1ccc([N+](=O)[O-])cc1)C(Cl)Cl [CHLORAMPHENICOL]	µg/mL	32

Next compound, please.
Entry under review: CC1=C(c2c(C)cc(O)c3c2C(=O)C(c2c(O)c4c(C)cccc4oc2=O)=C(c2c(O)c4c(C)cccc4oc2=O)C3=O)C(=O)c2c(O)cccc2C1=O [DIOSPYRONE] . Reported MIC?
64

----------
# Test system: Enterobacter cloacae
# assay.method.text: Antimicrobial activity against Enterobacter cloacae Ec07769 after 18 hrs by rapid INT colorimetric assay
# Format: functional
# setup.conditions: Ec07769, 18 h
Residues, ends and D or L forms follow the SMILES beside them. *: point of attachment. βNA = c1ccc2cc(N*)ccc2c1
MIC values for the compounds below.

Examples with their reported MIC follow.
compound	experimental.system	MIC
O=C(N[C@H](CO)[C@H](O)c1ccc([N+](=O)[O-])cc1)C(Cl)Cl [CHLORAMPHENICOL]	Enterobacter cloacae	> 256 µg/mL
N=C(N)NCCC[C@H](NC(=O)[C@@H](N)Cc1ccccc1)C(=O)Nc1ccc2ccccc2c1 [PABETAN] (H-Phe-Arg-βNA)	Enterobacter cloacae	> 256 µg/mL
CC1=C(c2c(C)cc(O)c3c2C(=O)C(c2c(O)c4c(C)cccc4oc2=O)=C(c2c(O)c4c(C)cccc4oc2=O)C3=O)C(=O)c2c(O)cccc2C1=O [DIOSPYRONE]	Enterobacter cloacae	128 µg/mL
CCn1cc(C(=O)O)c(=O)c2cc(F)c(N3CCNCC3)cc21 [NORFLOXACIN]	Enterobacter cloacae	> 256 µg/mL

Next compound, please.
Entry under review: CC(C)=CCc1c(O)ccc(C(=O)/C=C/c2ccc(O)cc2)c1O [ISOBAVACHALCONE] . Reported MIC?
128 µg/mL

----------
# Test system: Klebsiella aerogenes
# assay.method.text: Antimicrobial activity against Enterobacter aerogenes ATCC 13048 after 18 hrs by rapid INT colorimetric assay in presence of efflux pump inhibitor phenylalanine arginine
# Type: functional
# setup.conditions: ATCC 13048, 18 h
reported.metric: MIC
In your response, the unit should come after the numeric value.

Examples with their reported MIC follow.
line.notation	experimental.system	MIC
CCn1cc(C(=O)O)c(=O)c2cc(F)c(N3CCNCC3)cc21	Klebsiella aerogenes	0.25 mg/L
O=C(N[C@H](CO)[C@H](O)c1ccc([N+](=O)[O-])cc1)C(Cl)Cl	Klebsiella aerogenes	1 mg/L
CC1=C(c2c(C)cc(O)c3c2C(=O)C(c2c(O)c4c(C)cccc4oc2=O)=C(c2c(O)c4c(C)cccc4oc2=O)C3=O)C(=O)c2c(O)cccc2C1=O	Klebsiella aerogenes	32 mg/L

Entry under review: CC(C)=CCc1c(O)ccc(C(=O)/C=C/c2ccc(O)cc2)c1O . Reported MIC?
16 mg/L

----------
MIC values for the molecules below.
# Tested on: Klebsiella pneumoniae
# assay.method.text: Antimicrobial activity against Klebsiella pneumoniae ATCC 11296 after 18 hrs by rapid INT colorimetric assay
# Format: functional
# setup.conditions: ATCC 11296, 18 h
Residues, ends and D or L forms follow the SMILES beside them. *: point of attachment. βNA = c1ccc2cc(N*)ccc2c1
Output spec: scalar in µg/mL, unitless text.

Examples with their reported MIC follow.
molecule	unit.info	recorded.number
CC(C)=CCc1c(O)ccc(C(=O)/C=C/c2ccc(O)cc2)c1O [ISOBAVACHALCONE]	µg/mL	32
N=C(N)NCCC[C@H](NC(=O)[C@@H](N)Cc1ccccc1)C(=O)Nc1ccc2ccccc2c1 [PABETAN] (H-Phe-Arg-βNA)	µg/mL	256
O=C(N[C@H](CO)[C@H](O)c1ccc([N+](=O)[O-])cc1)C(Cl)Cl [CHLORAMPHENICOL]	µg/mL	2
CCn1cc(C(=O)O)c(=O)c2cc(F)c(N3CCNCC3)cc21 [NORFLOXACIN]	µg/mL	1

Entry under review: CC1=C(c2c(C)cc(O)c3c2C(=O)C(c2c(O)c4c(C)cccc4oc2=O)=C(c2c(O)c4c(C)cccc4oc2=O)C3=O)C(=O)c2c(O)cccc2C1=O [DIOSPYRONE] . Reported MIC?
32

----------
MIC values for the compounds below.
# System: Escherichia coli
# assay.method.text: Antimicrobial activity against Escherichia coli AG100 after 18 hrs by rapid INT colorimetric assay
# Assay type: functional
# setup.conditions: AG100, 18 h
Output spec: scalar in µg/mL, unitless text.

Examples with their reported MIC follow.
compound	MIC (µg/mL)
O=C(N[C@H](CO)[C@H](O)c1ccc([N+](=O)[O-])cc1)C(Cl)Cl [CHLORAMPHENICOL]	4
CC(C)=CCc1c(O)ccc(C(=O)/C=C/c2ccc(O)cc2)c1O [ISOBAVACHALCONE]	64
CC1=C(c2c(C)cc(O)c3c2C(=O)C(c2c(O)c4c(C)cccc4oc2=O)=C(c2c(O)c4c(C)cccc4oc2=O)C3=O)C(=O)c2c(O)cccc2C1=O [DIOSPYRONE]	64

Entry under review: CCn1cc(C(=O)O)c(=O)c2cc(F)c(N3CCNCC3)cc21 [NORFLOXACIN] . Reported MIC?
0.12

----------
MIC values for the compounds below.
# System: Escherichia coli
# assay.method.text: Antimicrobial activity against tetracycline-resistant Escherichia coli AG102 after 18 hrs by rapid INT colorimetric assay
# Type: functional
# setup.conditions: AG102, 18 h
Output spec: scalar in µg/mL, unitless text.

line.notation	experimental.system	MIC, µg/mL
CC1=C(c2c(C)cc(O)c3c2C(=O)C(c2c(O)c4c(C)cccc4oc2=O)=C(c2c(O)c4c(C)cccc4oc2=O)C3=O)C(=O)c2c(O)cccc2C1=O	Escherichia coli	64
CCn1cc(C(=O)O)c(=O)c2cc(F)c(N3CCNCC3)cc21	Escherichia coli	1
CC(C)=CCc1c(O)ccc(C(=O)/C=C/c2ccc(O)cc2)c1O	Escherichia coli	64

Entry under review: O=C(N[C@H](CO)[C@H](O)c1ccc([N+](=O)[O-])cc1)C(Cl)Cl . Reported MIC?
32

----------
# System: Enterobacter cloacae
# assay.method.text: Antimicrobial activity against Enterobacter cloacae Ec1194 after 18 hrs by rapid INT colorimetric assay in presence of efflux pump inhibitor phenylalanine arginine
# Type: functional
# setup.conditions: Ec1194, 18 h
MIC values for the compounds below.
Output spec: scalar in µg/mL, unitless text.

Examples with their reported MIC follow.
compound	reported.metric	recorded.number
O=C(N[C@H](CO)[C@H](O)c1ccc([N+](=O)[O-])cc1)C(Cl)Cl [CHLORAMPHENICOL]	MIC	1
CC1=C(c2c(C)cc(O)c3c2C(=O)C(c2c(O)c4c(C)cccc4oc2=O)=C(c2c(O)c4c(C)cccc4oc2=O)C3=O)C(=O)c2c(O)cccc2C1=O [DIOSPYRONE]	MIC	2
CCn1cc(C(=O)O)c(=O)c2cc(F)c(N3CCNCC3)cc21 [NORFLOXACIN]	MIC	32

Entry under review: CC(C)=CCc1c(O)ccc(C(=O)/C=C/c2ccc(O)cc2)c1O [ISOBAVACHALCONE] . Reported MIC?
1
